# target-or-test-system: human placental aromatase (Homo sapiens, UniProt P11511)
# Construct: the enzyme system was isolated from the microsomal fraction of human placental tissue
# Sequence (P11511 whole entry): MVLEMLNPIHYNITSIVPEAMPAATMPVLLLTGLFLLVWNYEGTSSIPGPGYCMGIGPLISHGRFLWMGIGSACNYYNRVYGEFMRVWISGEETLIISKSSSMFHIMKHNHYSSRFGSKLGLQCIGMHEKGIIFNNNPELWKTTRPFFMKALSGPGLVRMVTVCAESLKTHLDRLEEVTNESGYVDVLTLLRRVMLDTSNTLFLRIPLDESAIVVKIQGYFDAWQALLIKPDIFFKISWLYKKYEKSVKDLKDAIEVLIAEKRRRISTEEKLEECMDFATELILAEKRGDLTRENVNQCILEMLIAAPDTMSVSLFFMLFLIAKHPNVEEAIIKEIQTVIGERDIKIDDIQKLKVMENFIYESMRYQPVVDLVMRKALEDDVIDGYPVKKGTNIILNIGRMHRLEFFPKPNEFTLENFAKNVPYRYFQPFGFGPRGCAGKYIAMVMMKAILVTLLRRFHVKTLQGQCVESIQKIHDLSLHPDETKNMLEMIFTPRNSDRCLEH
# experiment-notes: Inhibition of human placental aromatase in vitro (3H2O release from 4-[1β,2β-3H]androstene-3,17-dione)
# condition-set: microsomal fraction of human placental tissue; 50 nM 4-[3H]androstenedione, 100 μM NADPH, 0.05 mg microsomal proteins, 37° C., pH 7.5, 15 minutes
measured-attribute: pIC50
// pIC50 is dimensionless: -log10 of concentration (M)

Use the examples below as a reference point.
Prompt line: Form field - read-out: pIC50; system: human placental aromatase (Homo sapiens, UniProt P11511); submitted item: C[C@@H](C(=O)NC1CCCCC1)c1ccc(N)cc1
Response line: 6.89

Prompt line: Thanks! And Nc1ccc(C2CCCCC2)cc1 ?
Response line: 5.91

Next compound, please.
Prompt line: Form field - read-out: pIC50; system: human placental aromatase (Homo sapiens, UniProt P11511); submitted item: C[C@@H](C(=O)OC1CCCCC1)c1ccc(N)cc1
Response line: 7.00
